Recorded melting point values for a group of compounds are listed next.

Sample records with melting point:
CC(C)(C#N)c1cc(C#N)cc(Cn2cncn2)c1 :: 90 to 92 °C
CCn1cc(C(=O)O)c(=O)cc1Cl :: 155 to 157 °C
Nn1cc(I)c(=O)[nH]c1=O :: 195 to 196 °C

Input line: Given CCOCc1cnn2c(-c3cccc(C(F)(F)F)c3)ccnc12 , state its recorded melting point.
Output line: 110 to 111 °C

Input line: Value lookup for melting point; key = CC(=O)N1CCc2cc(S(=O)(=O)n3c(COC(C)(C)C(=O)O)cc4cc(C(F)(F)F)ccc43)ccc21
Output line: 176 to 178 °C

Input line: Need melting point of COC(=O)Cc1c(Cl)nc(C)nc1Nc1ccccc1 , thanks.
Output line: 115 to 116 °C

* * *

melting point by entry:

Cc1cccc(NC(=O)c2ccn3c2CSC3c2cccnc2)n1 (centres undefined) :: 162 °C
CC(C)(C)c1cc(CCc2ccccc2NC(=O)NC2CCN(Cc3ccc(C(F)(F)F)cc3C(F)(F)F)CC2)cc(C(C)(C)C)c1O :: 156 to 157 °C
O=C(c1ccccc1SSc1ccccc1C(=O)N1CCC(O)C1)N1CCC(O)C1 (centres undefined) :: 168 to 172 °C
CC(C)c1ccc(N(Cc2cnn(Cc3cccs3)c2)C(=O)C2CCCc3c(O)cccc32)cn1 (centres undefined) :: 125 to 129 °C
Cc1nccn2c(-c3ccnc(NCCC(C)(C)O)n3)c(-c3ccc(F)cc3F)nc12 :: 175 °C

Input line: Param item = CC(C)(N)[C@H]1CCN(c2c(F)cc3c(=O)c(C(=O)O)cn(C4CC4)c3c2F)C1 ; retrieve measured melting point.
Output line: 261 to 264 °C

Input line: Given the compound C=CCn1nnc2cc3c(=O)n(C(C)Cn4ncnn4)nnc3cc2c1=O (centres undefined) , what is its reported melting point?
Output line: 159 to 161 °C

Input line: Fill in: melting point of CCCCc1nn2cc(-c3ccccc3)nc2n1Cc1ccc(-c2ccccc2-c2nnn[nH]2)cc1 is ___
Output line: > 160 °C

Input line: Give the measured melting point of CCCCOc1ccc2c3c([nH]c2c1)CC(NC(C)=O)CC3 (centres undefined) .
Output line: 182 to 184 °C

* * *

Parameter: melting point. Scope: all listed entries.

COc1ccc(-c2nc3scc(-c4cc(C(C)(C)C)c(O)c(C(C)(C)C)c4)n3c2-c2ccc(OC)cc2)cc1 :: 236 to 237 °C

Input line: GET /values?readout=melting point&item= O=C(O)C=Nc1cccc(F)c1C(=O)O
Output line: 169 °C

Input line: Can you share its melting point? I mean this compound: CS(=O)(=O)c1ccc(-n2nc(C(F)(F)F)cc2-c2ccc(-c3ccco3)cc2F)cc1
Output line: 223 to 225 °C

Input line: Record request: melting point value, item CCCCC(C)c1cc(O)c2c(c1)OC(C)(C)CC2C1=CCN(Cc2ccc3ccccc3c2)CC1 (centres undefined)
Output line: 49 to 52 °C

* * *

Here, each record is paired with measured melting point data.

Input line: What melting point value was documented for this compound, C=CC(=O)c1ccc([N+](=O)[O-])cc1 ?
Output line: 89 to 90 °C

Input line: Quick check: melting point of CCOc1ccc(-c2nc(-c3cc(CCO)c(O)c(C(=O)OC)c3)cs2)cc1OCC ?
Output line: 113 to 114 °C

Input line: Which measured melting point value corresponds to CC(=O)Nc1ccc2c(c1)/C(=N\NC(N)=O)C(=O)N2CCN(C(C)C)C(C)C ?
Output line: 135 to 137 °C

Input line: I am curious: what melting point value has been reported for CN(CCN(C)c1nc2ccccc2n1Cc1ccc(F)cc1)C(=O)OC(C)(C)C ?
Output line: 182 to 185 °C

Input line: Record request: melting point value, item CC(=O)NC[C@H]1CN(c2ccc3c(c2)CS(=O)(=O)CC3)C(=O)O1
Output line: 177 to 179 °C

Input line: Given the compound CN(CCCCC(=O)N1CCN(c2nc3cc(C(=O)Nc4nc(C(C)(C)C)cs4)ccn3c(=O)c2/C=C/C(=O)O)CC1)CC(=O)O , what is its reported melting point?
Output line: 169 to 172 °C

Input line: Using the record for CCOC(=O)c1c(C(C)(C)O)nc(CO)n1Cc1ccc(-c2ccccc2-c2nnn[nH]2)cc1 , report its melting point.
Output line: 98 to 99 °C

Input line: For the compound shown here, CNC(=O)Nc1snc(S(C)(=O)=O)c1C(N)=O , give the reported melting point.
Output line: 227 to 228 °C

Input line: Look at this compound and give its reported melting point. Cn1nc(-c2c(F)cccc2Cl)nc1-c1ccc(Oc2ccccc2)cc1Cl
Output line: 135 to 140 °C

* * *

VALUE_KIND: melting point

CCOC(=O)CC(=O)c1ccc(F)c(Cl)c1 :: 39 to 40 °C
CCOC(=O)Cc1ccc2c(c1)sc1cccc(Cl)c12 :: 82 to 84 °C
COc1ccccc1P1(=O)c2ccccc2CN1c1ccccc1 (centres undefined) :: 189 to 191 °C

Input line: May I ask what melting point has been recorded for COc1c(-c2cc3c(s2)CCCC3N=[N+]=[N-])ccc2c(=O)c(C(=O)O)cn(C3CC3)c12 (centres undefined) ?
Output line: 134 to 136 °C

Input line: Recorded melting point for CCCn1c(=O)c2c(nn3cc(-c4cccc(OC)c4)[nH]c23)n(Cc2ccccc2)c1=O , please?
Output line: 249 to 250 °C

Input line: // melting point lookup, key: CC(=O)NCC1CC(c2cc(F)c(N3CCN(C(=O)C4COc5ccccc5O4)CC3)c(F)c2)=NO1 (single isomer, unassigned; (-))
Output line: 158 to 159 °C

* * *

As shown below, each of these compounds has a reported melting point value.

Cc1cccc(NC(=O)NCC(=O)N(CC(=O)NC(C)(C)C)c2ccccc2)c1 :: 214 °C
COC(=O)CNc1ccc(OC(=O)CC2CCN(c3ccncc3)CC2)cc1 :: 120 to 122 °C
NC(=O)c1c(C(=O)O)cnn1-c1cccc(Cl)c1 :: 223 to 225 °C
CNc1cc(OC)c(OC)cc1C(C)=O :: 121 to 124 °C

Input line: State the recorded melting point for this entry: COc1cc2c(cc1OC)[C@H]1CCCC[C@H]1N=C2c1ccc(C(C)=NO)cc1
Output line: 189 to 192 °C

* * *

melting point by entry:

These solved cases illustrate the format of a correct answer.
CC(C)N1C(=O)NC(c2ccc3ocnc3c2)c2cc3c(cc21)OCO3 (centres undefined) :: 84 to 86 °C
COCCc1nc2c(N)nc3cc(-c4ccccc4)ccc3c2n1CCCCNS(C)(=O)=O :: 201 to 202 °C
CCCc1nc2c(N)nc3cc(O)ccc3c2s1 :: 236 to 239 °C
CC1(C)Oc2ccc(C#N)cc2[C@@H](NC(=NC#N)Oc2ccccc2)[C@@H]1O (relative stereo) :: 186 to 188 °C
COc1ccc(N2CCOCC2)c2sc(NC(=O)N3CCC(C)(O)CC3)nc12 :: 236 °C

Input line: Look up melting point: COc1ccccc1N1CCN(CCCc2ccc(C3CCC(=O)N3)cc2)CC1 (centres undefined)
Output line: 109 to 111 °C

Input line: What value of melting point has been reported for the following compound? CC(C)c1occc1S(=O)(=O)c1ccc(O)cc1
Output line: 131 °C

Input line: Recorded melting point of CCCCc1ccc(C(=O)NCCN(C(C)=O)[C@@H](CCC(N)=O)C(=O)O)nc1 , please.
Output line: 156 to 158 °C

Input line: Entry Cc1cc(C)cc(-c2nc(NC(=O)c3ccncc3)sc2-c2ccncc2)c1 : reported melting point = ?
Output line: 302 to 304 °C

* * *

melting point for assorted molecules

COc1cc(-c2nc(N3CCOCC3)c3c(C)c(C#N)sc3n2)cc(OC)c1OC :: > 250 °C
Cc1ccccc1COCCCC(=O)O :: 79 to 80 °C
Cc1ccc(-c2ccc(C(=O)CBr)cc2)cc1 :: 120 to 122 °C
COc1cc(CNC(=O)c2nc3sccc3c(=O)[nH]2)ccc1Br :: 196 to 198 °C
COc1ccc(C=CC(=O)N2CCc3c([nH]c4ccccc34)C2c2ccc3c(c2)OCO3)cc1OC (stereo unspecified) :: 233 °C
Cc1nc2cc(O)c(C)cc2o1 :: 198 to 200 °C

Input line: If you can, please state the reported melting point value of COc1cc(COc2nn(Cc3ccccc3)cc2CO)ccc1OCc1nc(-c2ccco2)oc1C .
Output line: 104 to 105 °C

Input line: // query melting point value for entry O=C1CC(c2cccc(-n3ccnn3)c2)=Nc2cc(O)c(C#Cc3ccc(F)cc3)cc2N1
Output line: 243 °C

Input line: What value of melting point has been reported for the following molecule? COc1cc(O)c(C(=O)CC(=O)C(C)(C)C#N)c(OC)c1
Output line: 112 to 113 °C

Input line: // returns reported melting point for input Cc1cc(C)c2c(n1)N(CCN(C(C)C)C(C)C)C(=O)N(C)C2
Output line: 97 to 99 °C

Input line: Please report the recorded melting point for O=c1c(Br)c(OCc2cccc(Cl)c2)ccn1Cc1cccc(F)c1 .
Output line: 149 to 153 °C

Input line: Value lookup for melting point; key = CC1(C)C=NC(C(NC(c2ccccc2)(c2ccccc2)c2ccccc2)C(=O)O)S1 (stereo unspecified)
Output line: 180 to 182 °C

Input line: If you can, please state the reported melting point value of CC(C)(C)NS(=O)(=O)c1ccccc1C(O)c1ccccc1 (stereo unspecified) .
Output line: 160 °C

Input line: Which melting point value is on record for CON(C)S(=O)(=O)c1ccccc1S(=O)(=O)NC(=O)n1nc(OCC(F)(F)F)n(C)c1=O ?
Output line: 183 °C

Input line: Please look up its melting point: C[C@@H](O)Cn1ncc2ccc(O)c([N+](=O)[O-])c21
Output line: 70 to 74 °C

Input line: # lookup: melting point of Cn1c(=O)c2c(ncn2CC(N)=NO)n(C)c1=O
Output line: 224 °C

Input line: # lookup: melting point of CNC(=O)N(C)c1nnc(SCC(=O)OC(C)(C)C)s1
Output line: 174 °C

Input line: Would you kindly share the measured melting point for Cc1coc(C)c1C(=O)OC1CC(C)(C)N(CC#N)C(C)(C)C1 ?
Output line: 156 °C

Input line: Fill blank: measured melting point of the molecule Cc1c(C)c2c(c(C)c1NC=O)OC(C)(C)C2=O is ____.
Output line: 191 to 192 °C

Input line: Could you share which melting point value was measured for COc1ccc(NC(=O)c2ccc([N+](=O)[O-])cc2)cc1 ?
Output line: 200 °C

Input line: // melting point lookup, key: CC12CCC(=O)C=C1N(C(C)(C)C)CC1C2CCC2(CC(=O)O)C(C(=O)O)CCC12 (stereo unspecified)
Output line: 215 to 216 °C
